# subject of test: T1, human CD37 (human, UniProt P11049 1-281)
# T1 construct: whole, on cells; also called CD37 antigen
# T1 sequence (looked up): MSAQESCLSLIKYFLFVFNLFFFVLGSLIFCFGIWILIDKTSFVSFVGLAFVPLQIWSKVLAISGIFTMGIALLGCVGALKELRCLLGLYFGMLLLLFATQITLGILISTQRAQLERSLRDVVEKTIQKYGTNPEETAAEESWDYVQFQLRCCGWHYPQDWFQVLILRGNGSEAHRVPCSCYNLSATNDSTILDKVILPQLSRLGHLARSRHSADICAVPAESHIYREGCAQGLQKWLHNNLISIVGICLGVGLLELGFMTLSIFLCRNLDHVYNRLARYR
# test: competitive radioligand binding on Ramos cells; ratio to Ki of NNV009 (assumed 2.3)
measured property: Ki(NNV009)/Ki(NNV020 var.) (fold)

[[record]]
binder = "AH02895 (antibody, human IgG1, kappa, V domains shown, Humanized IgG1 kappa; also called NNV020 #6) VH: QIQLVQSGAEVVKPGASVKVSCKASGYSFTDYNMYWVKQAPGQRLEWMGYIDPYNGDTTYNQKFKGRATITRDTSASTAYIELSSLRSEDTAVYYCARSPYGHYAMDYWGQGTLVTVSS VL: DIQMTQSPSSLSASVGDRVTITCKASQDVSTAVDWYQQKPGKAPKLLINWASTRHTGVPSRFSGSGSGTDYTLTISSMQPEDFATYYCRQHYSTPFTFGQGTKLEIKR"
units_label = "fold"
result_number = 6.97

[[record]]
binder = "AH02871 (antibody, human IgG1, kappa, V domains shown, Humanized IgG1 kappa; also called NNV026; NNV020 #1) VH: QVQLVQSGAEVVKPGASVKVSCKASGYSFTDYNMYWVKQAPGQRLEWMGYIDPYNGDTTYNQKFKGRVTITRDTSASTAYMELSSLRSEDTAVYYCARSPYGHYAMDYWGQGTLVTVSS VL: DIQMTQSPSSLSASVGDRVTITCKASQDVSTAVDWYQQKPGKAPKLLINWASTRHTGVPSRFSGSGSGTDYTLTISSMQPEDFATYYCRQHYSTPFTFGQGTKLEIKR"
units_label = "fold"
result_number = 4.27

[[record]]
binder = "AH02877 (antibody, human IgG1, V domains shown, Full-length human IgG1 kappa; constant domains from NNV003; also called NNV020 #3) VH: QVQLVQSGAEVVKPGASVKVSCKASGYSFTDYNMYWVKQAPGQRLEWMGYIDPYNGDTTYNQKFKGRATLTVDTSASTAYIELSSLRSEDTAVYYCARSPYGHYAMDYWGQGTLVTVSS VL: DIQMTQSPSSLSASVGDRVTITCKASQDVSTAVDWYQQKPGKSPKLLINWASTRHTGVPSRFSGSGSGTDYTLTISSLQPEDFATYYCRQHYSTPFTFGQGTKLEIKR"
units_label = "fold"
result_number = 5.45

[[record]]
binder = "AH02879 (antibody, human IgG1, V domains shown, Full-length human IgG1 kappa; constant domains from NNV003; also called NNV020 #4) VH: QIQLVQSGAEVVKPGASVKVSCKASGYSFTDYNMYWVKQAPGQRLEWIGYIDPYNGDTTYNQKFKGRATLTRDTSASTAYMELSSLRSEDTAVYYCARSPYGHYAMDYWGQGTLVTVSS VL: DIQMTQSPSSLSTSVGDRVTITCKASQDVSTAVDWYQQKPGKSPKLLINWASTRHTGVPSRFSGSGSGTDYTLTISSMQPEDFATYYCRQHYSTPFTFGQGTKLEIKR"
units_label = "fold"
result_number = 5.22

[[record]]
binder = "AH02886 (antibody, human IgG1, kappa, V domains shown, Humanized IgG1 kappa; also called NNV027; NNV020 #5) VH: QVQLVQSGAELKKPGASVKVSCKASGYSFTDYNMYWVKQAPGQRLEWMGYIDPYNGDTTYNQKFKGRVTLTVDTSASTAYMELSSLRSEDTAVYYCARSPYGHYAMDYWGQGTLVTVSS VL: DIQMTQSPSSLSTSVGDRVTITCKASQDVSTAVDWYQQKPGKAPKLLINWASTRHTGVPSRFSGSGSGTDYTLTISSLQPEDFATYYCRQHYSTPFTFGQGTKLEIKR"
units_label = "fold"
result_number = 4.3

[[record]]
binder = "AH02875 (antibody, human IgG1, V domains shown, Full-length human IgG1 kappa; also called NNV020 #2) VH: QIQLVQSGAELKKPGASVKVSCKASGYSFTDYNMYWVRQAPGQRLEWMGYIDPYNGDTTYNQKFKGRATITRDTSASTAYIELSSLRSEDTAVYYCARSPYGHYAMDYWGQGTLVTVSS VL: DIQMTQSPSSLSASVGDRVTITCKASQDVSTAVDWYQQKPGKSPKLLINWASTRHTGVPSRFSGSGSGTDYTLTISSMQPEDFATYYCRQHYSTPFTFGQGTKLEIKR"
units_label = "fold"
result_number = 4.36


# credit: patent US20250333531A1
